- Tested on: pERK in GP2d cells (KRAS G12D)
- experiment_description: Cell-based pERK HTRF assay
- run_parameters: GP2d, 1 h, 60 min incubation
pIC50: −log10 of the molar value.
Catalogue of pIC50 values

{"columns": ["mol_smiles", "pIC50"],
 "data": [
  ["CN1C[C@H](F)C[C@H]1COc1nc(N2CC3CCC(C2)N3)c2cc(C(F)(F)F)c(-c3ccc(F)c4sc(N)nc34)c(F)c2n1", "≥ 7.00"],
  ["Nc1nc2c(-c3c(C(F)(F)F)cc4c(N5C[C@H]6CC[C@@H](C5)N6)nc(OC[C@@]56CCCN5C[C@H](F)C6)nc4c3Cl)ccc(F)c2s1", "≥ 7.00"],
  ["Nc1nc2c(-c3c(C(F)(F)F)cc4c(N[C@H]5C[C@H]6CNC[C@H]6C5)nc(OCC56CCCN5CCC6)nc4c3F)ccc(F)c2s1", "< 6.00"],
  ["Nc1nc2c(-c3c(C(F)(F)F)cc4c(NC5CNC5)nc(OCC56CCCN5CCC6)nc4c3F)ccc(F)c2s1", "< 6.00"],
  ["Nc1nc2c(-c3c(C(F)(F)F)cc4c(N5CC[C@H]6CNC[C@H]65)nc(OC[C@@]56CCCN5C[C@H](F)C6)nc4c3F)ccc(F)c2s1", "6.00 to 7.00"],
  ["N#Cc1c(N)sc2c(F)ccc(-c3c(Cl)cc4c(N5C[C@H]6CC[C@@H](C5)N6)nc(OC[C@@]56CCCN5C[C@H](F)C6)nc4c3F)c12", "≥ 7.00"]
]}
